# target-of-assay: mouse EP3α (Mus musculus)
# Sequence (P30557 whole entry): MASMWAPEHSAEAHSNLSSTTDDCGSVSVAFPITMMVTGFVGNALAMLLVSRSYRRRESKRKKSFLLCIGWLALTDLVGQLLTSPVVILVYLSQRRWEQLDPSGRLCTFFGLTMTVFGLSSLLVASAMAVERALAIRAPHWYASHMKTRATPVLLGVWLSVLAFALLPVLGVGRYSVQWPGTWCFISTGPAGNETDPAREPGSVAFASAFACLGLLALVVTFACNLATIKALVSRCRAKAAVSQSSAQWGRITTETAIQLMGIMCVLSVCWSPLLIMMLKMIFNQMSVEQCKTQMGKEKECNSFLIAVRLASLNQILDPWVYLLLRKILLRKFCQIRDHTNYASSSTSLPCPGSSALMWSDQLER
assay-readout: pKi
Recall that pKi is obtained by taking minus log10 of the concentration measured in molar.

GET pKi where system = mouse EP3α (Mus musculus) and item = O=C(O)CSCCCS[C@H]1C(=O)C[C@@H](O)[C@@H]1/C=C/[C@@H](O)C1CCCCC1
6.21

###

Target or system UniProt P32240: recorded Ki listed per item.
The reply should be a number in nM, with the unit left off.

Worked examples, 2 molecules total:
molecule	target-of-assay	Ki / nM
CCCC[C@H](C)C[C@H](O)/C=C/[C@H]1[C@H](O)CC(=O)[C@@H]1SCCCSCC(=O)O [Example 2(b)]	UniProt P32240	0.6
CCCC[C@H](C)[C@H](O)/C=C/[C@@H]1C(SCCCSCC(=O)O)C(=O)C[C@H]1O (stereo partly drawn) [Example 2(o)]	UniProt P32240	0.2

API: the following record is the query input.
Name the recorded Ki of the item CCCCC(C)CC(O)/C=C/C1C(O)CC(=O)C1SCCCSCC(=O)O (stereo not drawn) [Example 2(a)] in your answer.
0.8

###

Target or system mouse EP4 (Mus musculus, UniProt P32240): recorded Ki listed per item.
The reply should be a number in nM, with the unit left off.

Worked examples, 4 compounds total:
compound	Ki [nM]
CC/C=C\CC(O)/C=C/C1C(O)CC(=O)C1SCCCSCC(=O)O (centres unmarked) [Example 2(e)]	0.91
O=C(O)CSCCCSC1C(=O)CC(O)C1/C=C/C(O)Cc1ccccc1 (centres unmarked)	7
O=C(O)CSCCCSC1C(=O)CC(O)C1/C=C/C(O)CCc1ccccc1 (centres unmarked)	6
CCCCC(O)/C=C/C1C(O)CC(=O)C1SCCCSCC(=O)O (centres unmarked)	1.4

GET Ki where system = mouse EP4 (Mus musculus, UniProt P32240) and item = O=C(O)CSCCCSC1C(=O)CC(O)C1/C=C/C(O)CC1CCCC1 (centres unmarked)
Sequence (P32240 whole entry): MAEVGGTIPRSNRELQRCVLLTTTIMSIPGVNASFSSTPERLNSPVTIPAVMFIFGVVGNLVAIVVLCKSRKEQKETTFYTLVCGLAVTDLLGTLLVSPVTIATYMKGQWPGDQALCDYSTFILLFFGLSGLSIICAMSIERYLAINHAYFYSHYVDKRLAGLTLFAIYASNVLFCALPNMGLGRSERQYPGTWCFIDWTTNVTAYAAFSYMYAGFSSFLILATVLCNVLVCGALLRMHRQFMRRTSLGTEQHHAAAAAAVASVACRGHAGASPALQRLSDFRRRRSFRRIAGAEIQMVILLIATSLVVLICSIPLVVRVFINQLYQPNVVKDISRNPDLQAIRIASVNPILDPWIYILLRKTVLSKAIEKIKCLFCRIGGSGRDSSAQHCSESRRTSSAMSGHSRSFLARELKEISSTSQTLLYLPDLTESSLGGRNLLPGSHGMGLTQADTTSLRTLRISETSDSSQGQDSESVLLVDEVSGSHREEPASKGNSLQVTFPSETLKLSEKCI
4.2
